- Test system: HeLa
- experiment: Cytotoxicity against Homo sapiens (human) HeLa cells assessed as cell viability at 10 uM after 72 hr by MTT assay
- Assay type: functional
- stated.conditions: read-out: Activity
Please respond with reported viability at 10 µM for every item in the list.
Unit % implied. Number only.

Query string: Output viability at 10 µM of `Fc1ccc(COc2cccc(-n3cc(Cn4c5ccccc5c5nc6ccccc6nc54)nn3)c2)cc1`
Result string: 81.5

Query string: Output viability at 10 µM of `Fc1ccc2c(c1)c1nc3ccccc3nc1n2Cc1cn(-c2cccc(C(F)(F)F)c2)nn1`
Result string: 86.4

Query string: Output viability at 10 µM of COc1cccc2c1C(=O)c1c(O)c3c(c(O)c1C2=O)C[C@@](O)(C(=O)CO)C[C@@H]3O[C@H]1C[C@H](N)[C@H](O)[C@H](C)O1 [DOXORUBICIN]
Result string: 12

Query string: Output viability at 10 µM of `Brc1ccccc1-n1cc(Cn2c3ccccc3c3nc4ccccc4nc32)nn1`
Result string: 75.6

Attribution: ChEMBL document CHEMBL3046073
